# TESTED SYSTEM: T1, GFP-9S library array, motif 4 ND N98L;D124C (synthetic construct, N98L;D124C)
# T1 chain: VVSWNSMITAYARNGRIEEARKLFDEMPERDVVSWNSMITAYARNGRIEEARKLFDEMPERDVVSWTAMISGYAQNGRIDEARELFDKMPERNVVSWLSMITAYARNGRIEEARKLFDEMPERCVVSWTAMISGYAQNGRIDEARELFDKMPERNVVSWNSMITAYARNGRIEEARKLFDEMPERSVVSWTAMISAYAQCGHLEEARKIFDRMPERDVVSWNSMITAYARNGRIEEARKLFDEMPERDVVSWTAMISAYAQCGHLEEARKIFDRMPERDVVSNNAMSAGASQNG
# PROTOCOL: high-throughput RNA pulldown from lysate on Ni-NTA beads; HRP: 50 mM Tris pH 8, 150 mM NaCl, 1 mM beta-mercaptoethanol, 50 ug/ml BSA, 3 ug/ml yeast RNA, 0.5% heparin; ITC and FP: Tris pH 8, 200 mM KCl, 5% glycerol; MST: 50 mM Tris pH 8, 200 mM NaCl, 1 mM DTT, BSA, heparin, 0.05% Tween 20
# SETTINGS: tags: N-terminal His-eGFP; label: 5' Cy5
Overview of recorded Kd for various binders

[
  {
    "BINDER": "AUUACACGUGA (ssRNA) [Cy5-rpoA]",
    "Kd [nM]": 89
  },
  {
    "BINDER": "AUUAGACGUGA (ssRNA) [Cy5-rpoA-G]",
    "Kd [nM]": 70.4
  }
]
